SYSTEM NAME: UniProt:P04150
ASSAY COMMENT: Transactivation of glucocorticoid receptor ligand binding domain (unknown origin) transfected in human HeLa cells assessed as activation of NP-1 by GAL4 luciferase reporter gene assay relative to dexamethasone
Format: cell-based

COMPOUND	SYSTEM NAME	QUALIFIER SYMBOL	Efficacy / %
CC(C)(C(=O)Nc1nncs1)[C@H](c1ccccc1)c1ccc2[nH]ncc2c1	UniProt:P04150	<	30
CC(C)CCn1ncc2cc(C(c3ccccc3)C(C)(C)C(=O)Nc3nncs3)ccc21 (racemic)	UniProt:P04150	=	66
CC(C(=O)Nc1nncs1)[C@@H](c1ccccc1)c1ccc2c(cnn2-c2ccc(F)cc2)c1 (single isomer, unassigned; diastereomer 3)	UniProt:P04150	=	122
CC(C)(C(=O)Nc1nncs1)[C@@H](c1ccccc1)c1ccc2[nH]ncc2c1	UniProt:P04150	=	41
CC(C)(C(=O)Nc1nncs1)[C@@H](c1ccccc1)c1ccc2c(cnn2-c2cccnc2)c1	UniProt:P04150	=	57
CC(C)(C(=O)Nc1nccs1)[C@H](c1ccccc1)c1ccc2c(cnn2-c2ccc(F)cc2)c1	UniProt:P04150	=	59
CC(C)(C(=O)Nc1nncs1)[C@@H](c1ccccc1)c1ccc2c(cnn2-c2ccc(F)cc2)c1	UniProt:P04150	=	106
CC(C)n1ncc2cc(C(c3ccccc3)C(C)(C)C(=O)Nc3nncs3)ccc21 (racemic)	UniProt:P04150	<	30

---

SYSTEM NAME: Glucocorticoid receptor (Homo sapiens, UniProt P04150)
ASSAY COMMENT: Agonist activity at glucocorticoid receptor in human A549 cells assessed as inhibition of PMA-induced AP-1 activation by luciferase reporter gene assay
Assay type: cell-based

MOLECULE	QUANTITY UNIT	EC50
CC(C)(C(=O)Nn1nccn1)C(c1ccccc1)c1ccc2c(cnn2-c2ccc(F)cc2)c1 (racemic)	nM	17
CC(C)(C(=O)Nc1nccs1)C(c1ccc2c(cnn2-c2ccc(F)cc2)c1)C1CCCC1 (racemic)	nM	82
CC(C)(C(=O)Nc1nncs1)C(c1ccccc1)c1ccc2c(cnn2-c2ccc(O)cc2)c1 (racemic)	nM	271

---

SYSTEM NAME: Glucocorticoid receptor (Homo sapiens) (UniProt P04150)
ASSAY COMMENT: Transactivation of glucocorticoid receptor ligand binding domain (unknown origin) transfected in human HeLa cells assessed as activation of NP-1 by GAL4 luciferase reporter gene assay relative to dexamethasone
Type: cell-based
Measured Efficacy accompanies every entry in the list below.

MOLECULE	QUALIFIER SYMBOL	Efficacy, %
CC(C(=O)Nc1nncs1)[C@@H](c1ccccc1)c1ccc2c(cnn2-c2ccc(F)cc2)c1 (single isomer, unassigned; diastereomer 2)	=	76
CC(C(=O)Nc1nncs1)C(c1ccccc1)c1ccc2c(cnn2-c2ccc(F)cc2)c1 (single isomer, unassigned; diastereomer 4)	=	100
CC(C)(C(=O)Nc1nncs1)C(c1ccccc1)c1ccc2c(cnn2-c2ccc(O)cc2)c1 (racemic)	<	30
CC(C)(C(=O)Nc1nncs1)C(c1ccccc1)c1ccc2c(cnn2C2CCCCCC2)c1 (racemic)	=	60
CC(C)Cn1ncc2cc(C(c3ccccc3)C(C)(C)C(=O)Nc3nncs3)ccc21 (racemic)	<	30
COc1cccc(-n2ncc3cc(C(c4ccccc4)C(C)(C)C(=O)Nc4nncs4)ccc32)c1 (racemic)	<	30
CC(C)(C(=O)Nc1nccs1)[C@@H](c1ccccc1)c1ccc2c(cnn2-c2ccc(F)cc2)c1	=	94
COc1ccc(-n2ncc3cc(C(c4ccccc4)C(C)(C)C(=O)Nc4nncs4)ccc32)cc1 (racemic)	<	30
CC(C)(C(=O)Nc1nncs1)C(c1ccccc1)c1ccc2c(cnn2-c2ccc(Cl)cc2)c1 (racemic)	=	55
CC(C)(C(=O)Nc1nncs1)C(c1ccccc1)c1ccc2c(cnn2-c2ccncc2)c1 (racemic)	<	30

---

SYSTEM NAME: Glucocorticoid receptor (Homo sapiens)
ASSAY COMMENT: Agonist activity at glucocorticoid receptor in human A549 cells assessed as inhibition of PMA-induced AP-1 activation by luciferase reporter gene assay relative to dexamethasone
Format: cell-based

MOLECULE	QUANTITY UNIT	Efficacy
CC(C)(C(=O)Nc1nncs1)C(c1ccccc1)c1ccc2c(cnn2Cc2ccccc2)c1 (racemic)	%	62
Cc1nnc(NC(=O)C(C)(C)C(c2ccccc2)c2ccc3c(cnn3-c3ccc(F)cc3)c2)s1 (racemic)	%	56
CC(C(=O)Nc1nncs1)C(c1ccccc1)c1ccc2c(cnn2-c2ccc(F)cc2)c1 (single isomer, unassigned; diastereomer 1)	%	42
CC(C)C(c1ccc2c(cnn2-c2ccc(F)cc2)c1)C(C)(C)C(=O)Nc1nncs1 (racemic)	%	29

---

Measured EC50 accompanies every entry in the list below.
SYSTEM NAME: UniProt P04150
Sequence (P04150 whole entry): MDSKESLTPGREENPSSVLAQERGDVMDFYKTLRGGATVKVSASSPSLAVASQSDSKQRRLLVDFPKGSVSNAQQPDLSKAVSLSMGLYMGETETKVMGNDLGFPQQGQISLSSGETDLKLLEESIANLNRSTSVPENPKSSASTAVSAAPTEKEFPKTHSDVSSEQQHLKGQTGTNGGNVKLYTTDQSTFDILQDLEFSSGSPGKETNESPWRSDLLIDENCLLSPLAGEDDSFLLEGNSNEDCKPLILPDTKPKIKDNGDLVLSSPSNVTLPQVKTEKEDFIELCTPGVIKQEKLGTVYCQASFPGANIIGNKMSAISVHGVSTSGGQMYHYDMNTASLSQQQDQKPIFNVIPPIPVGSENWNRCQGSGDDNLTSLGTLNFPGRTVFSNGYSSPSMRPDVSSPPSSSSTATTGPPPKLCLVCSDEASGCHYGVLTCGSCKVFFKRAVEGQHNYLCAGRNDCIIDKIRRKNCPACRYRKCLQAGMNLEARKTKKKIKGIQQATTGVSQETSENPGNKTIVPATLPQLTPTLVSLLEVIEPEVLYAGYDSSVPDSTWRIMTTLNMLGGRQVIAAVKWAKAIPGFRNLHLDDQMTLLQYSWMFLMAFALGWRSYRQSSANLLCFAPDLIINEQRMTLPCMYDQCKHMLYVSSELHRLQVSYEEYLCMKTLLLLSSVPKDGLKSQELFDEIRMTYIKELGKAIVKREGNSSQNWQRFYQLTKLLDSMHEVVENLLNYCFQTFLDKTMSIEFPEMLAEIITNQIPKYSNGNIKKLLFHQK
ASSAY COMMENT: Agonist activity at glucocorticoid receptor in human A549 cells assessed as inhibition of PMA-induced AP-1 activation by luciferase reporter gene assay
Format: cell-based

COMPOUND	QUALIFIER SYMBOL	EC50 [nM]
CC(C)(Cc1ccc2c(cnn2-c2ccc(F)cc2)c1)C(=O)Nc1nncs1	=	4320
CC(C)(C(=O)Nc1nncs1)[C@H](c1ccccc1)c1ccc2c(cnn2-c2ccc(F)cc2)c1	=	92
CC(C)(C(=O)Nc1nccs1)[C@@H](c1ccccc1)c1ccc2c(cnn2-c2ccc(F)cc2)c1	=	1.4
CC(C)(C(=O)Nc1nncs1)C(c1ccccc1)c1ccc2c(cnn2-c2ccc(F)cc2)c1 (racemic)	=	23
CC(C)(C(=O)Nc1nncs1)C(Cc1ccccc1)c1ccc2c(cnn2-c2ccc(F)cc2)c1 (racemic)	=	705
CC(C)(C(=O)Nc1nncs1)C(c1ccccc1)c1ccc2c(cnn2-c2ccncc2)c1 (racemic)	=	106
CC(C)(C(=O)Nc1nncs1)[C@@H](c1ccccc1)c1ccc2c(cnn2-c2cccnc2)c1	=	19
CC(C)(C(=O)Nc1nncs1)C(c1ccccc1)c1ccc2c(cnn2CCO)c1 (racemic)	=	550
CC(C)(C(=O)Nc1nncs1)C(c1ccccc1)c1ccc2c(cnn2-c2ccc(Br)cc2)c1 (racemic)	=	956
CC(C)(C(=O)Nc1nncs1)[C@H](c1ccccc1)c1ccc2c(cnn2-c2cccnc2)c1	=	349
COc1ccc(-n2ncc3cc(C(c4ccccc4)C(C)(C)C(=O)Nc4nncs4)ccc32)cc1 (racemic)	=	56
CC(C)(C(=O)Nc1nncs1)C(c1ccccc1)c1ccc2c(cnn2CCCO)c1 (racemic)	=	1020
CC(C)(C(=O)Nc1nccs1)C(c1ccc2c(cnn2-c2ccc(F)cc2)c1)C1CCCCC1 (racemic)	=	66
CC(C)(C(=O)Nc1nccs1)[C@H](c1ccccc1)c1ccc2c(cnn2-c2ccc(F)cc2)c1	=	400
CC(C)(C(=O)Nc1nncs1)C(c1ccccc1)c1ccc2c(cnn2-c2ccccc2)c1 (racemic)	=	20
CC(C)(C(=O)Nn1ncnn1)C(c1ccccc1)c1ccc2c(cnn2-c2ccc(F)cc2)c1 (racemic)	>	10000
CC(C)(C(=O)Nc1nncs1)C(c1ccccc1)c1ccc2c(cnn2-c2ccccn2)c1 (racemic)	=	127

---

SYSTEM NAME: Glucocorticoid receptor (Homo sapiens)
ASSAY COMMENT: Agonist activity at glucocorticoid receptor in human A549 cells assessed as inhibition of IL-1beta-induced NF-kappaB dependent E-selectin activation by luciferase reporter gene assay relative to dexamethasone
Assay type: cell-based
REPORTED ENDPOINT: Efficacy (%)

COMPOUND	QUALIFIER SYMBOL	NUMERIC VALUE
CC(C)(C(=O)Nc1nncs1)C(c1ccccc1)c1ccc2c(cnn2C2CCCCCC2)c1 (racemic)	=	86
CC(C)Cn1ncc2cc(C(c3ccccc3)C(C)(C)C(=O)Nc3nncs3)ccc21 (racemic)	=	77
CC(C)(C(=O)Nc1nncs1)[C@@H](c1ccccc1)c1ccc2c(cnn2-c2cccnc2)c1	=	77
CC(C)(C(=O)Nc1nncs1)[C@H](c1ccccc1)c1ccc2[nH]ncc2c1	<	30
CC(C)(C(=O)Nc1nccs1)[C@@H](c1ccccc1)c1ccc2c(cnn2-c2ccc(F)cc2)c1	=	97
COc1ccc(-n2ncc3cc(C(c4ccccc4)C(C)(C)C(=O)Nc4nncs4)ccc32)cc1 (racemic)	=	62
CC(C)n1ncc2cc(C(c3ccccc3)C(C)(C)C(=O)Nc3nncs3)ccc21 (racemic)	=	44
CC(C)(C(=O)Nc1nncs1)[C@@H](c1ccccc1)c1ccc2[nH]ncc2c1	=	77
